system: Mycobacterium avium; experiment: Minimum inhibitory concentration of compound against 20 Mycobacterium avium complex (MAC) clinical isolates
Property name: MIC (µg/mL)

>>> measured_result("CCCCN(CCCC)c1nc2c(s1)c1c(O)c3c(O)c(C)c4c(c32)C(=O)C(C)(O/C=C/C(OC)C(C)C(OC(C)=O)C(C)C(O)C(C)C(O)C(C)/C=C/C=C(/C)C(=O)N1)O4 (stereo not drawn)")
0.25
>>> measured_result("COC1/C=C/OC2(C)Oc3c(C)c(O)c4c(O)c(c5sc(N6CCN(C)CC6)nc5c4c3C2=O)NC(=O)/C(C)=C\\C=C\\C(C)C(O)C(C)C(O)C(C)C(OC(C)=O)C1C (stereo not drawn)")
16
>>> measured_result("CCN(CC)c1nc2c(s1)c1c(O)c3c(O)c(C)c4c(c32)C(=O)C(C)(O/C=C/C(OC)C(C)C(OC(C)=O)C(C)C(O)C(C)C(O)C(C)/C=C/C=C(/C)C(=O)N1)O4 (stereo not drawn)")
0.5

###

system: Mycobacterium avium; test: Minimum inhibitory concentration of compound against 20 Mycobacterium avium complex (MAC) clinical isolates
# Lookup of reported MIC keyed by entry
Property name: MIC (µg/mL)

>>> measured_result("CCNc1nc2c(s1)c1c(O)c3c(O)c(C)c4c(c32)C(=O)C(C)(O/C=C/C(OC)C(C)C(OC(C)=O)C(C)C(O)C(C)C(O)C(C)/C=C/C=C(/C)C(=O)N1)O4 (stereo not drawn)")
8
>>> measured_result("CCCCNc1nc2c(s1)c1c(O)c3c(O)c(C)c4c(c32)C(=O)C(C)(O/C=C/C(OC)C(C)C(OC(C)=O)C(C)C(O)C(C)C(O)C(C)/C=C/C=C(/C)C(=O)N1)O4 (stereo not drawn)")
2

###

system: Pseudomonas aeruginosa; assay: In vitro antibacterial activity of compound against Pseudomonas aeruginosa ATCC 10145; type: functional
Property name: MIC (µg/mL)

>>> measured_result("COC1/C=C/OC2(C)Oc3c(C)c(O)c4c(O)c(c5sc(N6CCN(c7ccccc7)CC6)nc5c4c3C2=O)NC(=O)/C(C)=C\\C=C\\C(C)C(O)C(C)C(O)C(C)C(OC(C)=O)C1C (stereo not given)")
8
>>> measured_result("COC1/C=C/OC2(C)Oc3c(C)c(O)c4c(O)c(c5sc(N6CCOCC6)nc5c4c3C2=O)NC(=O)/C(C)=C\\C=C\\C(C)C(O)C(C)C(O)C(C)C(OC(C)=O)C1C (stereo not given)")
16
>>> measured_result("COC1/C=C/OC2(C)Oc3c(C)c(O)c4c(O)c(c5sc(N6CCCC6)nc5c4c3C2=O)NC(=O)/C(C)=C\\C=C\\C(C)C(O)C(C)C(O)C(C)C(OC(C)=O)C1C (stereo not given)")
8
>>> measured_result("CCOC(=O)N1CCN(c2nc3c(s2)c2c(O)c4c(O)c(C)c5c(c43)C(=O)C(C)(O/C=C/C(OC)C(C)C(OC(C)=O)C(C)C(O)C(C)C(O)C(C)/C=C/C=C(/C)C(=O)N2)O5)CC1 (stereo not given)")
32
>>> measured_result("COC1/C=C/OC2(C)Oc3c(C)c(O)c4c(O)c(c5sc(N6CCN(C)CC6)nc5c4c3C2=O)NC(=O)/C(C)=C\\C=C\\C(C)C(O)C(C)C(O)C(C)C(O)C1C (stereo not given)")
16
>>> measured_result("COC1/C=C/OC2(C)Oc3c(C)c(O)c4c(O)c(c5c(c4c3C2=O)=NC2(CCN(CC(C)C)CC2)N=5)NC(=O)/C(C)=C\\C=C\\C(C)C(O)C(C)C(O)C(C)C(OC(C)=O)C1C (stereo not given)")
8
>>> measured_result("COC1/C=C/OC2(C)Oc3c(C)c(O)c4c(O)c(c5sc(N6CCNCC6)nc5c4c3C2=O)NC(=O)/C(C)=C\\C=C\\C(C)C(O)C(C)C(O)C(C)C(OC(C)=O)C1C (stereo not given)")
8
>>> measured_result("COC1/C=C/OC2(C)Oc3c(C)c(O)c4c(O)c(c5sc(N6CCN(C)CC6)nc5c4c3C2=O)NC(=O)/C(C)=C\\C=C\\C(C)C(O)C(C)C(O)C(C)C(OC(C)=O)C1C (stereo not given)")
8
>>> measured_result("COC1/C=C/OC2(C)Oc3c(C)c(O)c4c(O)c(c5sc(N6CCN(CCO)CC6)nc5c4c3C2=O)NC(=O)/C(C)=C\\C=C\\C(C)C(O)C(C)C(O)C(C)C(OC(C)=O)C1C (stereo not given)")
16
>>> measured_result("COc1ccc(N2CCN(c3nc4c(s3)c3c(O)c5c(O)c(C)c6c(c54)C(=O)C(C)(O/C=C/C(OC)C(C)C(OC(C)=O)C(C)C(O)C(C)C(O)C(C)/C=C/C=C(/C)C(=O)N3)O6)CC2)cc1 (stereo not given)")
128
>>> measured_result("COC1/C=C/OC2(C)Oc3c(C)c(O)c4c(O)c(c5scnc5c4c3C2=O)NC(=O)/C(C)=C\\C=C\\C(C)C(O)C(C)C(O)C(C)C(O)C1C (stereo not given)")
8
>>> measured_result("COC1/C=C/OC2(C)Oc3c(C)c(O)c4c(O)c(c(C=NN5CCN(C6CCCC6)CC5)c(O)c4c3C2=O)NC(=O)/C(C)=C\\C=C\\C(C)C(O)C(C)C(O)C(C)C(OC(C)=O)C1C (stereo not given)")
8
>>> measured_result("COC1/C=C/OC2(C)Oc3c(C)c(O)c4c(O)c(c5sc(N6CCN(Cc7ccccc7)CC6)nc5c4c3C2=O)NC(=O)/C(C)=C\\C=C\\C(C)C(O)C(C)C(O)C(C)C(OC(C)=O)C1C (stereo not given)")
16
>>> measured_result("CO[C@H]1/C=C/O[C@@]2(C)Oc3c(C)c(O)c4c(O)c(c(/C=N/N5CCN(C)CC5)c(O)c4c3C2=O)NC(=O)/C(C)=C\\C=C\\[C@H](C)[C@H](O)[C@@H](C)[C@@H](O)[C@@H](C)[C@H](OC(C)=O)[C@@H]1C")
8
>>> measured_result("CCCCNc1nc2c(s1)c1c(O)c3c(O)c(C)c4c(c32)C(=O)C(C)(O/C=C/C(OC)C(C)C(OC(C)=O)C(C)C(O)C(C)C(O)C(C)/C=C/C=C(/C)C(=O)N1)O4 (stereo not given)")
8
>>> measured_result("CCNc1nc2c(s1)c1c(O)c3c(O)c(C)c4c(c32)C(=O)C(C)(O/C=C/C(OC)C(C)C(OC(C)=O)C(C)C(O)C(C)C(O)C(C)/C=C/C=C(/C)C(=O)N1)O4 (stereo not given)")
4
>>> measured_result("CCN(CC)c1nc2c(s1)c1c(O)c3c(O)c(C)c4c(c32)C(=O)C(C)(O/C=C/C(OC)C(C)C(OC(C)=O)C(C)C(O)C(C)C(O)C(C)/C=C/C=C(/C)C(=O)N1)O4 (stereo not given)")
8
>>> measured_result("COC1/C=C/OC2(C)Oc3c(C)c(O)c4c(O)c(c5sc(N6CCN(C(=O)OCc7ccccc7)CC6)nc5c4c3C2=O)NC(=O)/C(C)=C\\C=C\\C(C)C(O)C(C)C(O)C(C)C(OC(C)=O)C1C (stereo not given)")
32
>>> measured_result("COC1/C=C/OC2(C)Oc3c(C)c(O)c4c(O)c(c5sc(N6CCN(c7ccc(Cl)cc7)CC6)nc5c4c3C2=O)NC(=O)/C(C)=C\\C=C\\C(C)C(O)C(C)C(O)C(C)C(OC(C)=O)C1C (stereo not given)")
128
